src = PubChem BioAssay (Tox21)

experiment: qHTS assay to identify small molecule agonists of the retinoic acid receptor (RAR) signaling pathway (AID 1159553); details: C3RL4 RARE luciferase reporter, agonist, 6 h; series mostly up to 73.3 µM
Records with an inconclusive call do not appear. Activity calls are given as the source filed them. The call rests on the fitted dose curve; in most records, active means well fitted activation curve with a large enough effect in the repeat runs; inconclusive means weak or mixed curves, or effect the other way; inactive means no such curve, though single readings can be large or run the other way.
In this exercise, the only acceptable responses are active, inactive

S=C1NC=NC2N=CNC12 (centres undefined); inactive
C[C@H]1O[C@@H](O[C@H]2CC[C@@]3(C)[C@H](CC[C@@H]4[C@@H]3C[C@@H](O)[C@]3(C)[C@@H](C5=CC(=O)OC5)CC[C@]43O)C2)C[C@H](O)[C@@H]1O[C@H]1C[C@H](O)[C@H](O[C@H]2C[C@H](O)[C@H](O[C@@H]3O[C@H](CO)[C@@H](O)[C@H](O)[C@H]3O)[C@@H](C)O2)[C@@H](C)O1; inactive
NCc1cccc(C2CCN(C(=O)c3ccc(C#Cc4ccccc4F)o3)CC2)c1; inactive
CC(Cc1ccc(O)c(O)c1)C(C)Cc1ccc(O)c(O)c1 (centres undefined); inactive
CCCOC(=O)c1ccc(O)cc1; active

Request: Hi team, can someone confirm the assay call for "O=C1CCCCCCCCCCCCCC1" ?
Result: inactive

Request: Also, "COc1cc(/C=C/C(=O)CC(=O)/C=C/c2ccc(O)c(OC)c2)ccc1O" please.
Result: active

Request: // next record "C=CCc1cc(S(=O)(=O)c2ccc(O)c(CC=C)c2)ccc1O"
Result: inactive

Request: Again, but for "O=C(N[C@H](CO)[C@H](O)c1ccc([N+](=O)[O-])cc1)C(Cl)Cl"
Result: inactive

====

test: qHTS assay to identify small molecule antagonists of the retinoid-related orphan receptor gamma (ROR-gamma) signaling pathway - cell viability counter screen (AID 1159520); conditions: Tet-on RORgamma CHO cells viability, ATP luminescence, 16 h; series mostly up to 92.4 µM; further: nearly all actives have a fitted effect of over 50% in size
Records with an inconclusive call do not appear. The source made the active and inactive calls. The call rests on the fitted dose curve; in most records, active means well fitted cell-killing curve with a large enough effect in the repeat runs; inconclusive means weak or mixed curves, or effect the other way; inactive means no such curve, though single readings can be large or run the other way.
Outcomes you can answer with include only these: active, inactive

CCSCC; inactive
Nc1ccc(Cl)c([N+](=O)[O-])c1; inactive

Request: // param item: "CCCCCCCCc1ccc(Nc2ccc(CCCCCCCC)cc2)cc1" ; yields the recorded call
Result: inactive

Request: CCOC(=O)C1=NN(c2ccc(Cl)cc2Cl)C(C)(C(=O)OCC)C1 (stereo not given)
Result: inactive

Request: And for "CCOc1nc(F)cc2nc(S(=O)(=O)Nc3c(Cl)cccc3C(=O)OC)nn12" ?
Result: inactive

Request: Field entry: "CN1CCN(C)CC1"
Result: inactive

Request: Do the same for "C=CCc1cc(S(=O)(=O)c2ccc(O)c(CC=C)c2)ccc1O" please
Result: inactive

Request: Same lookup for CCCC(C)C=O (stereo not given) , please.
Result: inactive

Request: What do you get for "CSc1nnc(C(C)(C)C)c(=O)[nH]1" ?
Result: inactive

Request: Try this compound too: "Cc1cccc(C)c1C"
Result: inactive

Request: Same again, this time with "Cc1ccc2sc3cccc(C)c3c2c1"
Result: inactive

Request: Moving on to the next compound: "C=Cc1ccc(O)c(OC)c1"
Result: inactive

Request: Queued: "[Cl][Eu]([Cl])[Cl]"
Result: inactive

Request: And "CC(O)(c1ccc(Cl)cc1)c1ccc(Cl)cc1" ?
Result: inactive

Request: What would you report for "COc1cc(/C=C/C(=O)CC(=O)/C=C/c2ccc(O)c(OC)c2)ccc1O" ?
Result: active

Request: Again, but for "Oc1ccc(C2(c3ccc(O)c(C4CCCCC4)c3)CCCCC2)cc1C1CCCCC1"
Result: active

Request: Repeat with "CCc1cccc(CC)c1"
Result: inactive

Request: Ok, now "COc1cc(OC)nc(NC(=O)NS(=O)(=O)Nc2ccccc2C(=O)N(C)C)n1"
Result: inactive

Request: And what about the compound "O=C1C=CC(=O)N1c1cccc(N2C(=O)C=CC2=O)c1" ?
Result: active

Request: Queued: C=C(C)C1CCC(C)CC1O (stereo not given)
Result: inactive

Request: Subsequent entry: "Clc1cccc(Cl)n1"
Result: inactive

Request: Also check "Cc1ccc(N=Nc2c(O)ccc3ccccc23)c(C)c1"
Result: inactive

Request: Now try "[Cl][Sc]([Cl])[Cl]" .
Result: inactive
